- Test Description: NCI Yeast Anticancer Drug Screen. Data for the CLN2oe strain (AID 163);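 note: 0% = growth of vehicle-only control cultures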
- Experimental Context: S. cerevisiae CLN2oe strain, at 100.0 µM, stronger effect = higher value
The panel holds about 79,000 compounds, 15% with a hit somewhere; the sample as a whole holds those more often.
Endpoint: growth inhibition (%)

Compound: CCCCCCCCCCCCCCN
Endpoint: growth inhibition
Meas Value: 98

Compound: COC(=O)c1cnc(Cl)c([N+](=O)[O-])c1
Endpoint: growth inhibition
Meas Value: 99

Compound: Clc1ccc(/C(=C\c2ccccc2)Cn2ccnc2)cc1
Endpoint: growth inhibition
Meas Value: 74

Compound: CC(C)(CN1CCCCC1)C(=O)/C=C/c1c(Cl)cccc1Cl
Endpoint: growth inhibition
Meas Value: 98

Compound: O=C1Nc2ccc(Br)cc2C1=Nc1ccc(Cl)cc1
Endpoint: growth inhibition
Meas Value: 52

Compound: Brc1ccc(B2Nc3ccccc3N2)cc1
Endpoint: growth inhibition
Meas Value: 43

Compound: COc1cccc(C(NC2=NCCC=N2)c2cc3c(cc2O)OCO3)c1O (stereo unspecified)
Endpoint: growth inhibition
Meas Value: 21

Compound: c1ccc2c(c1)N=C1CCCC3CCCC123 (stereo unspecified)
Endpoint: growth inhibition
Meas Value: 98

Compound: CCCCCCCCCCCNC=O
Endpoint: growth inhibition
Meas Value: 98

Compound: C=CCNC1=C2C[C@@H](C)C[C@H](OC)[C@H](O)[C@@H](C)/C=C(\C)[C@H](OC(N)=O)[C@@H](OC)/C=C\C=C(/C)C(=O)NC(=CC1=O)C2=O
Endpoint: growth inhibition
Meas Value: 27

Compound: CCCCCCNCCCNc1c2cc(OC)ccc2nc2cccc([N+](=O)[O-])c12
Endpoint: growth inhibition
Meas Value: 96

###

Entries and their growth inhibition
- Test Description: NCI Yeast Anticancer Drug Screen. Data for the wt1 strain (AID 149);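 note: 0% = growth of vehicle-treated wt1 cultures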
- Experimental Context: S. cerevisiae wt1 strain (SPY 50644) growth inhibition; at 1.2 µM; stronger effect = higher value
- Procedure: Growth inhibition of yeast strains with defined genetic alterations is measured as a screen for potential anti-cancer activity. Selected strains with alterations in DNA damage repair or cell cycle control were exposed to compounds and growth inhibition was measured relative to vehicle treated controls. The strain used in this assay is wt1
About 79,000 compounds went through this panel and 15% of them were active in at least one assay; those are over-represented in the sample as a whole.

Compound: O=C(O)C1CCCCC1c1c2ccc(=O)cc-2oc2cc(O)ccc12 (stereo not drawn)
growth inhibition / %: -24
--
Compound: O=C1NC(c2cccc(OCc3ccccc3)c2)Nc2ccccc21 (stereo not drawn)
growth inhibition / %: -10
--
Compound: S=C1N(c2ccc(Cl)cc2)C2=C(N=Nc3ccccc3)C(=Nc3ccccc3S2)N1c1ccccn1
growth inhibition / %: -3
--
Compound: COc1cc2c(cc1O)[C@H](C)C(c1ccccc1OC)O2 (stereo partly drawn)
growth inhibition / %: -11
--
Compound: CC(=O)N1C=Cc2c(c(C)c3c([nH]c4ccccc43)c2C)C1
growth inhibition / %: -7
--
Compound: CC1(C)CC(=O)C(C(=O)Nc2cccs2)=C(O)C1
growth inhibition / %: 21
--
Compound: CC(C)(CN1CCCCC1)C(=O)CC(SCCS(=O)(=O)O)c1ccccc1 (stereo not drawn)
growth inhibition / %: -63
--
Compound: C1=CCN([B-](c2ccccc2)[C+]2CCCCC2)C=C1
growth inhibition / %: -1
--
Compound: CC1=NN(C(=O)c2ccccc2O)C(=O)/C1=C/c1ccco1
growth inhibition / %: 21
--
Compound: Cc1ccc(NC(Nc2ccc(C)cc2C)=C(C(Cl)=C(Cl)Cl)[N+](=O)[O-])c(C)c1
growth inhibition / %: 2
--
Compound: CC(C)OP(=O)(OC(C)C)C(=NCCO)NNc1ccc([N+](=O)[O-])cc1
growth inhibition / %: -6
--
Compound: CCN(CC)C(=S)N/N=C(\C)c1ccccc1O
growth inhibition / %: -7
--
Compound: O=[N+]([O-])c1cn[n+]([O-])c2ccccc12
growth inhibition / %: 0
--
Compound: OC(Cc1cccc2ccccc12)CN1CCC(c2ccccc2)CC1 (stereo not drawn)
growth inhibition / %: 12
--
Compound: CC(C)N(CCCNc1c2ccccc2nc2cccc([N+](=O)[O-])c12)C(C)C
growth inhibition / %: 0
--
Compound: CO[C@@]1([C@@H](Cl)c2ccccc2)C(=O)N(C)/C(=C\c2ccccc2)C(=O)N1C
growth inhibition / %: 0
--
Compound: OC(CC(O)(C(F)(F)F)C(F)(F)F)c1ccc(C(O)CC(O)(C(F)(F)F)C(F)(F)F)cc1 (stereo not drawn)
growth inhibition / %: 23
--
Compound: COc1ccc(C(C)c2cc3c(cc2OC(C)O)OCO3)cc1 (stereo not drawn)
growth inhibition / %: -2

###

- Test Description: NCI Yeast Anticancer Drug Screen. Data for the rad50 strain (AID 155);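 note: 0% = growth of vehicle-only cultures of the same strain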
- Experimental Context: S. cerevisiae rad50 strain growth inhibition; at 50.0 µM (retest, dose inferred, filed as 5.0); stronger effect = higher value
The panel holds about 79,000 compounds, 15% with a hit somewhere; the sample as a whole holds those more often.
Values of growth inhibition greater than or equal to 90% map to Criterion met; values below map to Criterion not met.

Molecule: Nc1ccc(S(=O)(=O)Nc2nc3c(c(=O)[nH]2)CCCC3)cc1
Label Class: Criterion met
//
Molecule: CCCCS/C(=C(/C#N)C(N)=O)c1cc2c([nH]1)CCCC2
Label Class: Criterion not met
//
Molecule: CC(=O)Oc1ccc2c(c1)Cc1cc(N3C(=O)C=CC3=O)ccc1-2
Label Class: Criterion met
//
Molecule: O=[N+]([O-])c1cn[n+]([O-])c2ccccc12
Label Class: Criterion met
//
Molecule: O=C1C(=C2CCCC2)CCC1CN1CCCCC1 (stereo unspecified)
Label Class: Criterion not met
//
Molecule: Brc1ccc(B2Nc3ccccc3N2)cc1
Label Class: Criterion not met
//
Molecule: O=C1C=CC(=Nc2cccc3c2-c2ccccc2C3=O)O1
Label Class: Criterion met
//
Molecule: O=C1NC(c2cccc(OCc3ccccc3)c2)Nc2ccccc21 (stereo unspecified)
Label Class: Criterion not met
//
Molecule: CCCCN(CCCC)c1ccc(N=Nc2ccc(S(=O)(=O)O)cc2)cc1
Label Class: Criterion met
//
Molecule: Cc1ccccc1NC(=O)c1c(C)oc2c1C(=O)c1ccccc1C2=O
Label Class: Criterion not met
//
Molecule: O=[N+]([O-])[O][Sn]([O][Sn]([O][N+](=O)[O-])([c]1ccccc1)[c]1ccccc1)([c]1ccccc1)[c]1ccccc1
Label Class: Criterion not met
//
Molecule: O=C1C(/C=C/c2ccc(Cl)cc2)=NNC2N1N=C1NC(=O)C3(NN12)c1ccccc1-c1ccccc13 (stereo unspecified)
Label Class: Criterion not met
//
Molecule: NC(=S)N1N=C2c3ccccc3CC[C@H]2[C@@H]1c1ccc(Cl)cc1
Label Class: Criterion not met
//
Molecule: CC1=CN2C(c3ccccc3)=NON(c3ccc(C)cn3)C2C=C1 (stereo unspecified)
Label Class: Criterion not met
//
Molecule: CC(C(=O)N1C(=O)N(C(=O)C(C)C(O)c2ccccc2)C2CCCCC21)C(O)c1ccccc1 (stereo unspecified)
Label Class: Criterion not met
//
Molecule: Cc1cccc(C)c1NC(=O)CCC(=O)C(C)C(=O)c1ccc(O)cc1 (stereo unspecified)
Label Class: Criterion not met
//
Molecule: O=C1c2cccc3cccc(c23)C(=O)N1CCNCCN1C(=O)c2cccc3cccc(c23)C1=O
Label Class: Criterion not met
//
Molecule: N#CCC(=O)N/N=C(\c1ccccc1)C(c1ccccc1)C1(O)C(=O)Nc2c(Cl)ccc(Cl)c21 (stereo unspecified)
Label Class: Criterion not met
//
Molecule: CCS(=O)(=O)Nc1ccc(Nc2c3ccccc3nc3ccccc23)c(OC)c1
Label Class: Criterion met

###

- Test Description: NCI Yeast Anticancer Drug Screen. Data for the wt1 strain (AID 149);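 note: 0% = growth of vehicle-treated wt1 cultures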
- Experimental Context: S. cerevisiae wt1 strain (SPY 50644) growth inhibition; at 3.7 µM; stronger effect = higher value
About 79,000 compounds went through this panel and 15% of them were active in at least one assay; those are over-represented in the sample as a whole.
Known growth inhibition of a selection of compounds

Compound: Brc1ccc(B2Nc3ccccc3N2)cc1
growth inhibition (%): -1
--
Compound: CCOC(=O)/C(=C\c1ccc(F)cc1)C(C)=O
growth inhibition (%): 4
--
Compound: CCCCCCC=C(C(=O)OCC)C(=O)OCC
growth inhibition (%): -3
--
Compound: NCCCSc1ccccc1
growth inhibition (%): -4
--
Compound: O=C1Nc2ccc(Br)cc2C1=Nc1ccc(Cl)cc1
growth inhibition (%): -15
--
Compound: CC(=O)/C(=C\c1ccc(Cl)c(Cl)c1)C(=O)C(C)CN(C)C (configuration not stated)
growth inhibition (%): -13
--
Compound: OC(c1ccccc1)(c1ccccc1)c1nccc2ccccc12
growth inhibition (%): -3
--
Compound: CC(=O)N1C=Cc2c(c(C)c3c([nH]c4ccccc43)c2C)C1
growth inhibition (%): 28
--
Compound: Cc1cc(OCc2nc(N)nc(N)c2-c2ccc(Cl)c(Cl)c2)ccc1[N+](=O)[O-]
growth inhibition (%): 1
--
Compound: CCN(CC)CCNc1ccc2nc(C)n3c4ccc(O)cc4c(=O)c1c23
growth inhibition (%): -4
--
Compound: COc1ccccc1/C=C\C(=O)C1COCN1 (configuration not stated)
growth inhibition (%): -4
--
Compound: CCC1(O)C(=O)OCc2c1cc1n(c2=O)Cc2cc3c(N)cccc3nc2-1 (configuration not stated)
growth inhibition (%): -14
